Assayed target: Sterol O-acyltransferase 1 (Rattus norvegicus) (UniProt O70536)
Sequence (whole entry): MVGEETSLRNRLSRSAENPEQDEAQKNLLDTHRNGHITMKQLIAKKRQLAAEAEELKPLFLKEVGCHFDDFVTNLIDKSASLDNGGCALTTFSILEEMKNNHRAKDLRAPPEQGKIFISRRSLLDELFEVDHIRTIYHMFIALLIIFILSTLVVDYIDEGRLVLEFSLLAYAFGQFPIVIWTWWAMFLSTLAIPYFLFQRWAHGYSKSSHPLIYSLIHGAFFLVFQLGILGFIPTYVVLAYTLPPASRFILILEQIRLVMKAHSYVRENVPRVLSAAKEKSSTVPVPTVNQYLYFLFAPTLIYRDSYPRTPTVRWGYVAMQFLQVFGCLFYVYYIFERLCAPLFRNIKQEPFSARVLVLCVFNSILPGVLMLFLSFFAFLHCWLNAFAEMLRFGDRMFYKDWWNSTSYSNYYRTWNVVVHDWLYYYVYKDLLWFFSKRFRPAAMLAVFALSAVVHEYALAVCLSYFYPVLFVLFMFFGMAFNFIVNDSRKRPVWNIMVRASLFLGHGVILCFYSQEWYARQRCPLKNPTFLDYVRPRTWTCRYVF
Test name: In vitro inhibition of acyl coenzyme A:cholesterol acyltransferase
Set-up: concentration or dose not given beside the values
Assay setup: concentration not given here
Quantity measured: inhibition

Example compounds with recorded inhibition:
Compound | Quantity measured | Readout value
CCCCCCCCCCCCCCCCN(C(=O)C(F)(F)F)c1ccc(C(=O)Nc2ccc(C(=O)OCC)cc2)cc1 | inhibition | < 25%
CCCCCCCCCCCCCCCCNc1ccc(C(C)(C)C(=O)O)cc1 | inhibition | < 27%
CCCCCCCCCCCCCCCCNC1CCC(C(=O)O)CC1 (stereo unspecified) | inhibition | < 48%

[Q] Data request, read-out inhibition, for CCCCCCCCCCCCCCCCNc1ccc(C(=O)CC(=O)OC)cc1
[A] < 43%

[Q] Data request, read-out inhibition, for CCCCCCCCCCCCCCCCNc1ccc(C(=O)OCC(=O)OC)cc1
[A] < 24%

[Q] Data request, read-out inhibition, for CCCCCCCCCCCCCCCCNc1ccc(C(=O)NCC(O)CO)cc1 (stereo unspecified)
[A] < 61%

---

Tested on: Rattus norvegicus
Test name: In vivo sterol lowering activity at dose of 0.10 % of the diet
Format: functional
Quantity measured: serum sterol level, percent of control

Compound | serum sterol level, percent of control
CCCCCCCCCCCCCCCCNc1ccc(C(=O)OCC(O)CO)cc1.Cl (stereo not drawn) | <69%

[Q] Data request, read-out serum sterol level, percent of control, for CCCCCCCCCCCCCCCCNc1ccc(C(=O)NS(=O)(=O)c2ccccc2)cc1
[A] <67%

[Q] Data request, read-out serum sterol level, percent of control, for CCCCCCCCCCCCCCCCNc1ccc(C(=O)OCC(=O)OCC)cc1
[A] <66%

---

System: Rattus norvegicus
Test name: In vivo triglyceride lowering activity when dosed as 0.01 % of the diet
Type: functional
The following compounds are listed with their measured serum triglyceride level, percent of control values.

Example compounds with recorded serum triglyceride level, percent of control:
Smiles repr | Assayed target | Readout value
CCCCCCCCCCCCCCCCNc1ccc(C(=O)C(C(=O)OCC)C(=O)OCC)cc1 | Rattus norvegicus | <68%
CCCCCCCCCCCCCCCCN(CC)c1ccc(C(=O)O)cc1 | Rattus norvegicus | <78%

[Q] // fetch Rattus norvegicus serum triglyceride level, percent of control for CCCCCCCCCCCCCCCCN(C(C)=O)c1ccc(COC(C)=O)cc1
[A] <70%

---

The following compounds are listed with their measured serum triglyceride level, percent of control values.
Tested on: Rattus norvegicus
Test name: In vivo triglyceride lowering activity when dosed as 0.01 % of the diet
Type: functional
The response must be a number in % with no trailing unit.

Smiles repr | Unit of measure | Readout value
CCCCCCCCCCCCCCCCNc1ccc(C(=O)CS(C)(=O)=O)cc1 | % | 88
CCCCCCCCCCCCCCCCNc1ccc(C(=O)NS(=O)(=O)c2ccc([N+](=O)[O-])cc2)cc1 | % | 92

[Q] Data request, read-out serum triglyceride level, percent of control, for CCCCCCCCCCCCCCCCNc1ccc(C(=O)OCC(=O)OCC)cc1
[A] 92

---

System: Rattus norvegicus
Test name: In vivo sterol lowering activity at dose of 0.10 % of the diet
Format: functional
Quantity measured: serum sterol level, percent of control

Example molecules with recorded serum sterol level, percent of control:
Smiles repr | serum sterol level, percent of control
CCCCCCCCCCCCCCCCNc1ccc(C(N)=O)cc1 | <86%
CCCCCCCCCCCCCCCCNc1ccc(C=O)cc1 | <85%
CCCCCCCCCCCCCCCCNc1ccc(C(=O)O)cc1C | <91%
CCCCCCCCCCCCCCCCNc1ccc(C(=O)NS(=O)(=O)c2ccc(C)cc2)cc1 | <61%

Now examine the next entry.
[Q] Data request, read-out serum sterol level, percent of control, for CCCCCCCCCCCCCCCCNc1ccc(C(=O)O)c(F)c1
[A] <75%

---

Assayed target: UniProt O70536
Test name: In vitro inhibition of acyl coenzyme A:cholesterol acyltransferase
Design: concentration or dose not given beside the values
Assay setup: concentration not given here
Quantity measured: inhibition

Molecule | Assayed target | Readout value
CCCCCCCCCCCCCCCCNc1ccc(C(=O)N2CCCCC2)cc1 | UniProt O70536 | < 55%
CCCCCCCCCCCCCCCCNc1ccc(C(=O)CC#N)cc1 | UniProt O70536 | < 22%
CCCCCCCCCCCCCCCCNc1ccc(C(=O)NN)cc1 | UniProt O70536 | < 24%

[Q] Data request, read-out inhibition, for CCCCCCCCCCCCCCCCNc1ccc(C(=O)NS(=O)(=O)c2ccccc2)cc1
[A] < 22%

[Q] Data request, read-out inhibition, for CCCCCCCCCCCCCCCCNc1ccc(C(C)O)cc1 (configuration not stated)
[A] < 33%

[Q] Data request, read-out inhibition, for CCCCCCCCCCCCCCCCNc1ccc(C(=O)CC(=O)C(=O)OC)cc1
[A] < 43%

[Q] Data request, read-out inhibition, for CCCCCCCCCCCCCCCCNc1ccc(C(=O)OCC)c(C(=O)OCC)c1
[A] < 37%

---

Assayed target: Sterol O-acyltransferase 1 (Rattus norvegicus)
Test name: In vitro inhibition of acyl coenzyme A:cholesterol acyltransferase
Parameters: concentration or dose not given beside the values
Assay setup: concentration not given here
Quantity measured: inhibition

Example molecules with recorded inhibition:
Molecule | inhibition
CCCCCCCCCCCCCCCCNc1ccc(C(=O)Oc2ccc(C(=O)O)cc2)cc1 | < 18%
CCCCCCCCCCCCCCCCNc1ccc(C(=O)OC/C=C/COC(=O)c2ccc(NCCCCCCCCCCCCCCCC)cc2)cc1 | 10%
CCCCCCCCCCCCCCCCNc1ccc(C(=O)OCC(C)O)cc1 (stereo unspecified) | < 19%

[Q] Data request, read-out inhibition, for CCCCCCCCCCCCCCCCNc1ncc(C(=O)O)cn1
[A] < 21%

[Q] Data request, read-out inhibition, for CCCCCCCCCCCCCCCCNc1ccc(C(=O)O)cn1
[A] < 45%

[Q] Data request, read-out inhibition, for CCCCCCCCCCCCCCCCNc1cc(C(=O)[O-])c(C(=O)[O-])c(C(=O)[O-])c1.[Na+].[Na+].[Na+]
[A] < 24%

[Q] Data request, read-out inhibition, for CCCCCCCCCCCCCCN(CC)c1ccc(C(=O)O)cc1
[A] < 38%

[Q] Data request, read-out inhibition, for CCCCCCCCCCCCCCCCNc1csc(C(=O)OCC)c1
[A] < 24%

---

Test system: Rattus norvegicus
Test name: In vivo triglyceride lowering activity when dosed as 0.01 % of the diet
Format: functional
Quantity measured: serum triglyceride level, percent of control (%)
The response must be a number in % with no trailing unit.

Compound | Assayed target | Readout value
CCCCCCCCCCCCCCCCNc1ccc(C(=O)C(C)C(=O)OCC)cc1 (centres undefined) | Rattus norvegicus | 87
CCCCCCCCCCCCCCCCN(C=O)c1ccc(C(=O)O)cc1 | Rattus norvegicus | 77
Br.CCCCCCCCCCCCCCCCNc1ccc(OC(C)=O)cc1 | Rattus norvegicus | 108
CCCCCCCCCCCCCCCCCN(C)c1ccc(C(=O)O)cc1 | Rattus norvegicus | 98

[Q] Data request, read-out serum triglyceride level, percent of control, for CCCCCCCCCCCCCCCCNc1ccc(C(=O)OCCN(C)C)cc1.Cl
[A] 77

[Q] Data request, read-out serum triglyceride level, percent of control, for CCCCCCCCCCCCCCCCNc1ccc(C(=O)O)c(F)c1
[A] 77

---

Assayed target: Sterol O-acyltransferase 1 (Rattus norvegicus) (UniProt O70536)
Sequence (whole entry): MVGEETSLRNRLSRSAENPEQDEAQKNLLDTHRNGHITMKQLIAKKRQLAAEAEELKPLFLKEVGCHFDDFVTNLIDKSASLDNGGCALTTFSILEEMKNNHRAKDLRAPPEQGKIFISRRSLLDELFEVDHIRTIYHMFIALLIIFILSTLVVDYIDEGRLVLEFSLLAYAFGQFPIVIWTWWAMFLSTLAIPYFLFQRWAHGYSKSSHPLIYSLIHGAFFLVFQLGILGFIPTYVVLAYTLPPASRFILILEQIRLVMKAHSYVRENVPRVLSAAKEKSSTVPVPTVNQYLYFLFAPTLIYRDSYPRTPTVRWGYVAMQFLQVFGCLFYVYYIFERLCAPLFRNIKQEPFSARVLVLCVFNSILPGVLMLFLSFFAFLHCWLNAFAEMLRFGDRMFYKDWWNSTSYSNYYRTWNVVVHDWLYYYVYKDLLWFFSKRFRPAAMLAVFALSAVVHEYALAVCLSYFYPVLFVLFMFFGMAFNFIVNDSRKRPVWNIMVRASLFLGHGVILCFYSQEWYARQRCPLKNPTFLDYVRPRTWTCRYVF
Test name: In vitro inhibition of acyl coenzyme A:cholesterol acyltransferase
Parameters: concentration or dose not given beside the values
Assay setup: concentration not given here
The following compounds are listed with their measured inhibition values.

Compound | inhibition
CCCCCCCCCCCCCCCCN(C(=O)C(F)(F)F)c1ccc(C(=O)C(C(=O)OCC)C(=O)OC(C)(C)C)cc1 (stereo not drawn) | < 49%
CCCCCCCCCCCCCCCCNc1ccc(C=O)cc1 | < 30%

Now examine the next entry.
[Q] Data request, read-out inhibition, for CCCCCCCCCCCCCCCCNc1ccc(C(=O)NCC(=O)O)cc1
[A] < 64%

Where these numbers come from: ChEMBL document CHEMBL1122366
